Data origin, for the record: ChEMBL document CHEMBL5537174

pIC50 by entry:
Tested on: DLD-1
Assay: Antiproliferative activity against human DLD-1 cells harboring G13D mutant assessed as inhibition of cell proliferation incubated for 7 days by celltiter-glo 3D assay
Assay type: functional, cell-based
Conditions: DLD-1, 168 h
Quick note: pIC50 values are minus log10 of concentrations in mol/L.

COc1cc2nc(C)nc(N[C@H](C)c3cc(N)cc(C(F)(F)F)c3)c2cc1OCC1(CN(C)C(=O)CCCCCCNc2cccc3c2C(=O)N(C2CCC(=O)NC2=O)C3=O)CC1 (some centres not stated)	7.20

Kindly review the next molecule as well.
[ask] Need pIC50 of `COc1cc2nc(C)nc(N[C@H](C)c3cc(N)cc(C(F)(F)F)c3)c2cc1O[C@H]1CCOC1` , thanks.
[reply] 6.99

###

System: NCI-H358
Test: Antiproliferative activity against human NCI-H358 cells assessed as inhibition of cell proliferation incubated for 7 days by celltiter-glo 3D assay
Assay type: functional, cell-based
Conditions: NCI-H358, 168 h
pIC50 by entry:
Quick note: pIC50 values are minus log10 of concentrations in mol/L.

Consider the reported pIC50 for these compounds:
COc1cc2nc(C)nc(N[C@H](C)c3cc(N)cc(C(F)(F)F)c3)c2cc1O[C@H]1CCOC1	7.59
COc1cc2nc(C)nc(N[C@H](C)c3cc(N)cc(C(F)(F)F)c3)c2cc1OCC1(CN(C)C(=O)CN2CCN(C3CCN(c4ccc5c(c4)C(=O)N(C4CCC(=O)NC4=O)C5=O)CC3)CC2)CC1 (stereo partly specified)	6.03
COc1cc2nc(C)nc(N[C@H](C)c3cc(N)cc(C(F)(F)F)c3)c2cc1OCC1(CN(C)C(=O)CCCCCCNc2nccc3c2C(=O)N(C2CCC(=O)NC2=O)C3=O)CC1 (stereo partly specified)	6.50
COc1cc2nc(C)nc(N[C@H](C)c3cc(N)cc(C(F)(F)F)c3)c2cc1OCC1(CN(C)C(=O)COCCNc2cccc3c2C(=O)N(C2CCC(=O)NC2=O)C3=O)CC1 (stereo partly specified)	5.86
COc1cc2nc(C)nc(N[C@H](C)c3cccc(C(F)(F)C(C)(C)O)c3F)c2cc1OCC1(CN(C)C(=O)CCCCCCNc2cccc3c2C(=O)N(C2CCC(=O)NC2=O)C3=O)CC1 (stereo partly specified)	6.45

Kindly review the next compound as well.
[ask] Need pIC50 of COc1cc2nc(C)nc(N[C@H](C)c3cc(N)cc(C(F)(F)F)c3)c2cc1OCC1(CN(C)C(=O)C2CCC(OC3CCN(c4ccc5c(c4)C(=O)N(C4CCC(=O)NC4=O)C5=O)CC3)CC2)CC1 (stereo partly specified) , thanks.
[reply] 6.13

###

Biological target: UniProt:Q12809
Sequence (Q12809 whole entry): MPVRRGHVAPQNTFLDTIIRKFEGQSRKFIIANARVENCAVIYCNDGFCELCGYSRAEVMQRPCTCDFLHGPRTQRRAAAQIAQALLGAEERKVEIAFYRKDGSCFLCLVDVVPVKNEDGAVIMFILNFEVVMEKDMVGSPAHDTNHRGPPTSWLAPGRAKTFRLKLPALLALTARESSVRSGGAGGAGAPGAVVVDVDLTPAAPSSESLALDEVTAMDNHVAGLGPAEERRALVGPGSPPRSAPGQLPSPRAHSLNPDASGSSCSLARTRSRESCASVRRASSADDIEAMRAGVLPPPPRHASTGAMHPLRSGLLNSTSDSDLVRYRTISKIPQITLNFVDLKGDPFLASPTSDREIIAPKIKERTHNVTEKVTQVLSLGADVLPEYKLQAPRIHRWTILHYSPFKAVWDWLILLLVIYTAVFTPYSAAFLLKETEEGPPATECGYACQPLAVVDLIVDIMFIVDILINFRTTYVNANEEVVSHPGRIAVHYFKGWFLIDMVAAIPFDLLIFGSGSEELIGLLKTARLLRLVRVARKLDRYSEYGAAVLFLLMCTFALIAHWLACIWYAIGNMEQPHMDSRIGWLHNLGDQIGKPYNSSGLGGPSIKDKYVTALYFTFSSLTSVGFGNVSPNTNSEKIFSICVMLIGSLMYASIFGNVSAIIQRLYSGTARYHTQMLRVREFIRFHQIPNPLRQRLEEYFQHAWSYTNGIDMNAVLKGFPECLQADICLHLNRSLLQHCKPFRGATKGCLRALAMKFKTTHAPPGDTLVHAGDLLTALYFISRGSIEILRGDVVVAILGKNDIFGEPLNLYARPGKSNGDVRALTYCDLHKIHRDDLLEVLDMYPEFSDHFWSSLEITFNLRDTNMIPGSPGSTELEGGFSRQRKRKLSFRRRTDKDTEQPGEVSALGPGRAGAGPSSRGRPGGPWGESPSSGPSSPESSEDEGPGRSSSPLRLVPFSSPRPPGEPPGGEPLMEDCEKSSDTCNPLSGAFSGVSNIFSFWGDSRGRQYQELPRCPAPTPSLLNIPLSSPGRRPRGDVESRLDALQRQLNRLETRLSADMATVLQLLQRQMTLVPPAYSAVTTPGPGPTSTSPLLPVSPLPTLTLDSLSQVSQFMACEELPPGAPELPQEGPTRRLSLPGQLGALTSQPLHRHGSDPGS
Experiment: Inhibition of hERG at -80 mV holding potential by whole cell patch clamp recording assay
PROPERTY MEASURED: IC50

[ask] Need IC50 of COc1cc2nc(C)nc(N[C@H](C)c3cc(N)cc(C(F)(F)F)c3)c2cc1OCC1(CN(C)C(=O)CCCCCCNc2cccc3c2C(=O)N(C2CCC(=O)NC2=O)C3=O)CC1 (stereo partly specified) , thanks.
[reply] > 30 µM

###

Target: Cytochrome P450 3A4 (Homo sapiens, UniProt P08684)
Sequence (P08684 whole entry): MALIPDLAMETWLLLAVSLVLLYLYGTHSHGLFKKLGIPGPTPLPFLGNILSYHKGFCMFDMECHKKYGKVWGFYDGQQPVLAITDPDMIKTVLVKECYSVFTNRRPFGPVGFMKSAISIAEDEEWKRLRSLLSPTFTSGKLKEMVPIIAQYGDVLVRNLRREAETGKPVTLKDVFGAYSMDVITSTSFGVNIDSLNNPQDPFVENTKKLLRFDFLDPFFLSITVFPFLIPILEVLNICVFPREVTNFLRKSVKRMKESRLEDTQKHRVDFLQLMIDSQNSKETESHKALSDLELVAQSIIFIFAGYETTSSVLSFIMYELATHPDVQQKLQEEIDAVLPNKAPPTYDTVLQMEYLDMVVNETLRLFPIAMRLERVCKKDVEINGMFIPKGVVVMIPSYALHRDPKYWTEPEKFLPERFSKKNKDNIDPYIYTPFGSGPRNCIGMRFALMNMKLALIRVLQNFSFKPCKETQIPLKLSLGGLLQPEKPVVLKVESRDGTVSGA
PROPERTY MEASURED: IC50 (nM)
A number alone suffices; assume nM.

[ask] Need IC50 of COc1cc2nc(C)nc(N[C@H](C)c3cc(N)cc(C(F)(F)F)c3)c2cc1OCC1(CN(C)C(=O)CCCCCCNc2cccc3c2C(=O)N(C2CCC(=O)NC2=O)C3=O)CC1 (stereo partly specified) , thanks.
[reply] 320
